Values compiled from patent US20130156779A1.

- Study system: T1, Full-length human HER3 extracellular domain (ECD) (human, UniProt P21860 20-643)
- T1 construct: also called human HER3 ECD; HER-3 ECD full length
- T1 sequence (P21860 20-643): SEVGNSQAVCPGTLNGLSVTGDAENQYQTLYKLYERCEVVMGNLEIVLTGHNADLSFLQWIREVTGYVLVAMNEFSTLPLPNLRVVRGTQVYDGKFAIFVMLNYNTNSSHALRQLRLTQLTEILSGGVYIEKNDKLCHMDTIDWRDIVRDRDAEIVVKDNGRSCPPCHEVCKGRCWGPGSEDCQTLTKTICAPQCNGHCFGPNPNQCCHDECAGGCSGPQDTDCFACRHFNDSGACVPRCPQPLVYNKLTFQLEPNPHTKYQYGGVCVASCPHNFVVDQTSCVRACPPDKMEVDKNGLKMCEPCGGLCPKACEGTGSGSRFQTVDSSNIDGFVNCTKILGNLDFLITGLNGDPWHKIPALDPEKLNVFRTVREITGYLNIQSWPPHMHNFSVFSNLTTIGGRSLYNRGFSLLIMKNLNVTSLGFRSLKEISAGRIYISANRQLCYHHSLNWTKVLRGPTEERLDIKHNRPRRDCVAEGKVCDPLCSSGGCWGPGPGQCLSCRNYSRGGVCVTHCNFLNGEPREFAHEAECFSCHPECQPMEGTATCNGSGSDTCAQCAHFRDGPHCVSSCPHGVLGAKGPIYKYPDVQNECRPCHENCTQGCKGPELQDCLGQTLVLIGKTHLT
- Protocol notes: BIACORE 3000 SPR, mAb captured by anti-human Fc, ECD as analyte, 25 C
TRUE if kon is below 40000 M⁻¹ s⁻¹. FALSE if not; exact matches included in FALSE.

Sample answers from the record:
1D9 H6L5 RR antibody (antibody, V domains shown, also called 1D9 116L5 RR antibody) VH: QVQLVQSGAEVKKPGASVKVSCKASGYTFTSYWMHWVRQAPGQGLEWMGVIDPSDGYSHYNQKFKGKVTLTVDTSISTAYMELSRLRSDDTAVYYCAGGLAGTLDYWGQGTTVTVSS VL: DVLMTQSPSSLSASVGDRVTITCRSSQSIVHSSGNTYLQWFQQKPGKAPKLLISKVSNRFSGVPSRFSGSGSGTDFTLTISSLQPEDFAVYYCFQGSHVPWTFGQGTKLEIKR | FALSE
15D5 H1L1 antibody (antibody, V domains shown) VH: QFQLVQSGAEVKKPGASVKVSCKASGYSFTDYNMNWVKQAPGQGLEWIGGINPNYGTTVYNQKFKGKATLTVDQSISTAYMELSRLRSDDTAVYYCARMTTIVPFDYWGQGTTVTVSS VL: DIQMTQSPSSLSASVGDRVTITCRASQDISNYLNWYQQKPGKAPKLLIYYTSTLHSGVPSRFSGSGSGTDYTFTISSLQPEDIATYYCQQGYTLPWTFGGGTKVEIKR | TRUE

Bench note: check whether 15D5 H2L1 antibody (antibody, V domains shown, Humanized 15D5 variant) VH: QVQLVQSGAEVKKPGASVKVSCKASGYTFTDYNMNWVKQAPGQGLEWIGGINPNYGTTVYNQKFKGKATLTVDQSISTAYMELSRLRSDDTAVYYCARMTTIVPFDYWGQGTTVTVSS VL: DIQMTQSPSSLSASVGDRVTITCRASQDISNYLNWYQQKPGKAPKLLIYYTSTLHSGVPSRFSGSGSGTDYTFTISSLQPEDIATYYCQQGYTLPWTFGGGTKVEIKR shows kon below 40000 M⁻¹ s⁻¹
FALSE

Bench note: check whether 1D9 H2L2 RR antibody (antibody, V domains shown, Humanized RR variant) VH: QVQLVQSGAEVKKPGASVKVSCKASGYTFTSYWMHWVRQAPGQGLEWMGVIDPSDGYSHYNQKFKGRVTMTRDTSISTAYMELSRLRSDDTAVYYCAGGLAGTLDYWGQGTTVTVSS VL: DIQMTQSPSSLSASVGDRVTITCRSSQSIVHSSGNTYLQWFQQKPGKAPKLLIYKVSNRFSGVPSRFSGSGSGTDFTLTISSLQPEDFAVYYCFQGSHVPWTFGQGTKLEIKR shows kon below 40000 M⁻¹ s⁻¹
FALSE

Bench note: check whether 1D9 H3L2 RR antibody (antibody, V domains shown, Humanized RR variant) VH: QVQLVQSGAEVKKPGASVKVSCKASGYTFTSYWMHWVRQAPGQGLEWMGVIDPSDGYSHYNQKFKGKVTMTRDTSISTAYMELSRLRSDDTAVYYCARGLAGTLDYWGQGTTVTVSS VL: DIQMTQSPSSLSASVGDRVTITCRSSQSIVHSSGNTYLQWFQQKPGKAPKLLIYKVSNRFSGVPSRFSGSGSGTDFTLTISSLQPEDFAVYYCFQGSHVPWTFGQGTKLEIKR shows kon below 40000 M⁻¹ s⁻¹
FALSE
